Source of measurements: ChEMBL document CHEMBL3045240

- system-under-test: Ryanodine receptor 1 (Oryctolagus cuniculus)
- Sequence (P11716 whole entry): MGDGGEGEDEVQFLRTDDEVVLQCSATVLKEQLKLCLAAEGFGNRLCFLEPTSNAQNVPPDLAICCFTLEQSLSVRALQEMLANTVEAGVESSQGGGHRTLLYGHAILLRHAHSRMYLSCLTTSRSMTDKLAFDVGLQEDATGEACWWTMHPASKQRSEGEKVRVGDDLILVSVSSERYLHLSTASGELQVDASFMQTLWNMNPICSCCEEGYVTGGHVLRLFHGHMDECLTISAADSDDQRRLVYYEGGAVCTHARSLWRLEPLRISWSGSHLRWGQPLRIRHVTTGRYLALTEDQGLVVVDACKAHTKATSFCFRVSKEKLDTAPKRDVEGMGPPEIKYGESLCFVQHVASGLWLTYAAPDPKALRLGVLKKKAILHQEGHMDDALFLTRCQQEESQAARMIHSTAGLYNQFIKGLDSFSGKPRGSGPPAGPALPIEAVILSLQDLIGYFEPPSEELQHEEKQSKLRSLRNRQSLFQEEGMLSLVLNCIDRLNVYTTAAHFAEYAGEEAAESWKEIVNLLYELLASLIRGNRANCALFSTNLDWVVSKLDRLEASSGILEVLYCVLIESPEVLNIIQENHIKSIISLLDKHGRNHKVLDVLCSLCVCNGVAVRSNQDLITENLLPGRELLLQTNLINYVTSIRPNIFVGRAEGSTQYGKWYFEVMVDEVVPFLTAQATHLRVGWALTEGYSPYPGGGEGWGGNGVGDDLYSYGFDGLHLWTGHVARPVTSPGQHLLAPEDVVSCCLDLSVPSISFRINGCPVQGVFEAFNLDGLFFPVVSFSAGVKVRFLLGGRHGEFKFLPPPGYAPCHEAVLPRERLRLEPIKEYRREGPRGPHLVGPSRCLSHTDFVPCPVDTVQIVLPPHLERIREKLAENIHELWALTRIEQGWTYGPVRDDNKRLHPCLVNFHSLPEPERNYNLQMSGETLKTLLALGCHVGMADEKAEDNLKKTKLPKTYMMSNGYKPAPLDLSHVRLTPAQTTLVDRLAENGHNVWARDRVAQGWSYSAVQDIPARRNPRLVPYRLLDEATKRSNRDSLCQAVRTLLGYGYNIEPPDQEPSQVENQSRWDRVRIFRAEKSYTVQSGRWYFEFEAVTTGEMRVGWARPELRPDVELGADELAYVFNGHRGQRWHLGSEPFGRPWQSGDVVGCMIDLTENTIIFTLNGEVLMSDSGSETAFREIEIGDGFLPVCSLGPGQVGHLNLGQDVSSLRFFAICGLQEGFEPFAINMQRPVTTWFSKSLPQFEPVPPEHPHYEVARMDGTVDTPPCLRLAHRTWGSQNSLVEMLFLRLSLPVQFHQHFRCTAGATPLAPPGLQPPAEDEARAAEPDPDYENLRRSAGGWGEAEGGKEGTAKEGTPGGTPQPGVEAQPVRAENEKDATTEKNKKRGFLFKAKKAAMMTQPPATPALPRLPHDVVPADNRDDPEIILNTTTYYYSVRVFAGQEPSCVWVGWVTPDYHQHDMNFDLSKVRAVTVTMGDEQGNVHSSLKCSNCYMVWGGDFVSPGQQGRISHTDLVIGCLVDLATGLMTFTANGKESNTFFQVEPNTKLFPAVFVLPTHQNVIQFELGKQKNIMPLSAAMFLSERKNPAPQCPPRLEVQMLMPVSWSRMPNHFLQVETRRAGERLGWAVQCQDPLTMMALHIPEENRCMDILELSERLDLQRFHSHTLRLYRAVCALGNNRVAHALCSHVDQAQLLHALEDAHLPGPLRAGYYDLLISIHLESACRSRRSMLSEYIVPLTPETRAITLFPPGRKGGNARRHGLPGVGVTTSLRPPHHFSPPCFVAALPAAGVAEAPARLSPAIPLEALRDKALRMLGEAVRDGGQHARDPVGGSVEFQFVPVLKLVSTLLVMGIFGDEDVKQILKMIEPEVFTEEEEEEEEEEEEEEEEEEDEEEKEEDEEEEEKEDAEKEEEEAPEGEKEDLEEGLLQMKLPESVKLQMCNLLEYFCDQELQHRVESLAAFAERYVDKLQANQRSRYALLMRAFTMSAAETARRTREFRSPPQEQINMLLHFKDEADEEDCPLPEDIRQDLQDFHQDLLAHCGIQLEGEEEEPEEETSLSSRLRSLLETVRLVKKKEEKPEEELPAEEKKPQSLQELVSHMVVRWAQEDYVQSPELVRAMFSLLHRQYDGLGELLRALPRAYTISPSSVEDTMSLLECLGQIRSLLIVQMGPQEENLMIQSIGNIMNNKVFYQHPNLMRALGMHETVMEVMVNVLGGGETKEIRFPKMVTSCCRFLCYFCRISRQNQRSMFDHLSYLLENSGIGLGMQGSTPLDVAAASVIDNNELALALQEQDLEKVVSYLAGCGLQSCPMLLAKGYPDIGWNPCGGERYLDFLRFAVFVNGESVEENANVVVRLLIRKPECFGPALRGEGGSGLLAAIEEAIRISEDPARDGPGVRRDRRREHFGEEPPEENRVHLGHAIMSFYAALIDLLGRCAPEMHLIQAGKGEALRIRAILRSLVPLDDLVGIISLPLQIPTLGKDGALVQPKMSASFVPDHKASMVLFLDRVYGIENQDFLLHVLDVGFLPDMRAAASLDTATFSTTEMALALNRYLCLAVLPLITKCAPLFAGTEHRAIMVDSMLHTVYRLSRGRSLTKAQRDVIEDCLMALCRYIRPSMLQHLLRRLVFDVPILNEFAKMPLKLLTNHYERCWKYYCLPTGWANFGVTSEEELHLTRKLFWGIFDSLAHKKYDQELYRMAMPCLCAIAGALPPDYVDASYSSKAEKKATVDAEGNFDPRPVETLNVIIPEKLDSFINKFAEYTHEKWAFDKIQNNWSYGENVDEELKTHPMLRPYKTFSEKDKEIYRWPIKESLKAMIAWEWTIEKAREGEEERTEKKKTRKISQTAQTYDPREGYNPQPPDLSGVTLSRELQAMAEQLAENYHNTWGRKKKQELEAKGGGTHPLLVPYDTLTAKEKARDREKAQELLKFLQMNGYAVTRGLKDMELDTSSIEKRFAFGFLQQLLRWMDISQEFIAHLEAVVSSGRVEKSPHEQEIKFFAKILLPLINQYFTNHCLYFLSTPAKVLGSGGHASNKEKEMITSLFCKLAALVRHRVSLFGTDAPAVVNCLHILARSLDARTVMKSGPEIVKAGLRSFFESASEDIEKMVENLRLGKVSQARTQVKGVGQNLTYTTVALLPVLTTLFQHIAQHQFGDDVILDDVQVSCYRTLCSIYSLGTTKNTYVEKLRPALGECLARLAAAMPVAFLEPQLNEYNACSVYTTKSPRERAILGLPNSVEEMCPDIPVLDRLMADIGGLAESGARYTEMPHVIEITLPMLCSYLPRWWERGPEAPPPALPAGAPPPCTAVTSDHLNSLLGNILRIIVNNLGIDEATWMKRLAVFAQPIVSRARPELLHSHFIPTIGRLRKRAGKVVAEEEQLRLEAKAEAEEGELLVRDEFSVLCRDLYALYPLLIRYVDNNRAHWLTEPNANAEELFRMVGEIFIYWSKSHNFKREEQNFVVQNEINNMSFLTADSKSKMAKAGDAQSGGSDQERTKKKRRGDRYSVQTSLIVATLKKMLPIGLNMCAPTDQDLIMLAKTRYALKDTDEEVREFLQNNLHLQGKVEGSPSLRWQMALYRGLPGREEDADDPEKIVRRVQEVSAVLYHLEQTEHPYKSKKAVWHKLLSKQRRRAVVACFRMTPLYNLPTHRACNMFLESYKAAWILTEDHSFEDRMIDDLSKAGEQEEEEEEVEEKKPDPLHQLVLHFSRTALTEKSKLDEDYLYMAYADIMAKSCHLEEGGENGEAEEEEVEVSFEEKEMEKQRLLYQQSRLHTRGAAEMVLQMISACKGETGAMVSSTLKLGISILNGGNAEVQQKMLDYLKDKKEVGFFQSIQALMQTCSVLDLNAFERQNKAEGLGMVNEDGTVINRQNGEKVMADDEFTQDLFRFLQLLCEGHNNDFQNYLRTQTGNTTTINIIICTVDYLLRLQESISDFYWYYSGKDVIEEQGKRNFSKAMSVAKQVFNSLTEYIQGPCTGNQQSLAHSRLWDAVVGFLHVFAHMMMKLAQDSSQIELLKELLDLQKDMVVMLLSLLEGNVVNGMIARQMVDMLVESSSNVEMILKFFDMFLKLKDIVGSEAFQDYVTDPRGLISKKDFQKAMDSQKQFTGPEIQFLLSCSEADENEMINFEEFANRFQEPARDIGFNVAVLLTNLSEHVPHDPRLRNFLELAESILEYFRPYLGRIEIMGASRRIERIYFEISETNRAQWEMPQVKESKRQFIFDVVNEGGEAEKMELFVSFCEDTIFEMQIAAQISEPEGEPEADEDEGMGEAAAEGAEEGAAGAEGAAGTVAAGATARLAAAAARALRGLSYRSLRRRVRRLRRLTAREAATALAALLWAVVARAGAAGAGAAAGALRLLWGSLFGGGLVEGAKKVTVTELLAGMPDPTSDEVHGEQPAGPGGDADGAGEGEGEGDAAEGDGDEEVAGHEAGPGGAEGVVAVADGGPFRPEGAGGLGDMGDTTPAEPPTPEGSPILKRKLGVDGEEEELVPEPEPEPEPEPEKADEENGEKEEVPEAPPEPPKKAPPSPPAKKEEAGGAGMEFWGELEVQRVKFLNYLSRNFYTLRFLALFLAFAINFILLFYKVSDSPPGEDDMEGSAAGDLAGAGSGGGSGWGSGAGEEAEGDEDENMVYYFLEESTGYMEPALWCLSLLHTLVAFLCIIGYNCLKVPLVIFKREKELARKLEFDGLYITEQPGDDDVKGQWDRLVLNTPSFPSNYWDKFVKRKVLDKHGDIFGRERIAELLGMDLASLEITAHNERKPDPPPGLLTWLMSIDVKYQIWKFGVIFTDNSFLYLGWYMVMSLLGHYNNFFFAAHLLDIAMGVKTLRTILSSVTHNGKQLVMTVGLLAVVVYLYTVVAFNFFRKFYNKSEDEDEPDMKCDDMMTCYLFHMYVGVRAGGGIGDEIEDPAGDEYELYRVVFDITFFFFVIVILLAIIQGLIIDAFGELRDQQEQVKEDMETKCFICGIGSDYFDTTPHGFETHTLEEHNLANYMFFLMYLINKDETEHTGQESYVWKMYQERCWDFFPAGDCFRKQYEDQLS
test-readout: pIC50
On this scale, pIC50 is minus log10 of a concentration expressed in M (mol/L).

Exercise: Form field: pIC50 recorded for C=C1CC[C@]2(O)[C@]3(C)C[C@]4(O)O[C@@]2([C@@H]1O)[C@]1(O)[C@@]3(O)[C@H](O)[C@](O)(C(C)C)[C@@]14C [DIDEHYDRORYANODOL] with Ryanodine receptor 1 (Oryctolagus cuniculus) (enter value)
Key: 5.00

Exercise: Reported pIC50 for Ryanodine receptor 1 (Oryctolagus cuniculus), given CO[C@@]12C[C@@]3(C)[C@@]4(OC)CC[C@H](C)[C@@H](O)[C@]4(O1)[C@]1(O)[C@@]3(O)[C@H](OC(=O)c3cccn3C)[C@](O)(C(C)C)[C@]21C ?
Key: 5.89
